tested on: ZR751; assay: GRmax, 72 h; higher = less effect;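 note: breast cell lines in 384-well plates, nine doses across a 10^4 range, Dye Drop imaging of viable cells vs DMSO and time-zero plates, GR 0 means no net growth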
PARAMETER: GRmax, 72 h (GR)

MOLECULE: CN(C)C/C=C/C(=O)Nc1ccc(C(=O)Nc2cccc(Nc3cc(-c4c[nH]c5ccccc45)ncn3)c2)cc1 [THZ-P1-2] (max 10 µM)
STUDY_SYSTEM: ZR751
OBSERVED_RESULT: 0.262
--
MOLECULE: O=C(c1cc(Cc2n[nH]c(=O)c3ccccc23)ccc1F)N1CCN(C(=O)C2CC2)CC1 [Olaparib/AZD2281] (max 10 µM)
STUDY_SYSTEM: ZR751
OBSERVED_RESULT: 0.801
--
MOLECULE: CN(C)C(=O)c1cc2cnc(Nc3ccc(N4CCNCC4)cn3)nc2n1C1CCCC1 [LEE011/Ribociclib] (max 10 µM)
STUDY_SYSTEM: ZR751
OBSERVED_RESULT: 0.381
--
MOLECULE: CC(C)n1nc(-c2ccc3oc(N)nc3c2)c2c(N)ncnc21 [INK128/MLN0128] (max 3.162 µM)
STUDY_SYSTEM: ZR751
OBSERVED_RESULT: -0.0856
--
MOLECULE: COc1cccc(OCCCN)c1-c1cc(Nc2cnc(C#N)cn2)n[nH]1
STUDY_SYSTEM: ZR751
OBSERVED_RESULT: 0.384
--
MOLECULE: CCNC(=O)c1noc(-c2cc(C(C)C)c(O)cc2O)c1-c1ccc(CN2CCOCC2)cc1 [Luminespib/NVP-AUY922] (max 1 µM)
STUDY_SYSTEM: ZR751
OBSERVED_RESULT: 0.0576
--
MOLECULE: CN1CC[C@H](c2c(O)cc(O)c3c(=O)cc(-c4ccccc4Cl)oc23)[C@H](O)C1 [Flavopiridol] (max 1 µM)
STUDY_SYSTEM: ZR751
OBSERVED_RESULT: -0.353

###

tested on: SUM159; assay: area over the GR curve, 72 h; higher = more effect
Decision: area over the GR curve compared against 0.1 GR; not below it gives t, below it gives f.

COMPOUND: COc1cccc(OCCCN)c1-c1cc(Nc2cnc(C#N)cn2)n[nH]1
CLASS: t
--
COMPOUND: CCc1cncnc1N1CCN(Cc2nc3ccc(C(F)(F)F)cc3[nH]2)CC1 (max 10 µM)
CLASS: f
--
COMPOUND: Cc1nn(C)c(COc2ccc(N3CCN(S(=O)(=O)N(C)C)CC3)cc2)c1-c1cccc2c(CCCOc3cccc4ccccc34)c(C(=O)O)n(CCN3CCOCC3)c12 (max 10 µM)
CLASS: f
--
COMPOUND: CCN1CCN(Cc2ccc(Nc3ncc(F)c(-c4cc(F)c5nc(C)n(C(C)C)c5c4)n3)nc2)CC1 (max 10 µM)
CLASS: t
--
COMPOUND: CC(=O)c1c(C)c2cnc(Nc3ccc(N4CCN(CCOCCOCCOCCNC(=O)COc5cccc6c5C(=O)N(C5CCC(=O)NC5=O)C6=O)CC4)cn3)nc2n(C2CCCC2)c1=O (centres undefined) [BSJ-03-123] (max 10 µM)
CLASS: t
--
COMPOUND: Cc1cc(C(C)Nc2ccccc2)c2nc(N3CCOCC3)cc(=O)n2c1 (centres undefined) [TGX221] (max 10 µM)
CLASS: f
--
COMPOUND: O=C(c1cc(Cc2n[nH]c(=O)c3ccccc23)ccc1F)N1CCN(C(=O)C2CC2)CC1 [Olaparib/AZD2281] (max 10 µM)
CLASS: f
--
COMPOUND: CCc1cnn2c(NCc3ccc[n+]([O-])c3)cc(N3CCCC[C@H]3CCO)nc12 (max 1 µM)
CLASS: t
--
COMPOUND: CN1CCN(C(=O)c2ccc3cc(CCNc4ncnc5ccc(C#N)cc45)ccc3c2)CC1 [senexin b] (max 10 µM)
CLASS: f
--
COMPOUND: COc1cc2c(Oc3ccc4[nH]c(C)cc4c3F)ncnc2cc1OCCCN1CCCC1 [Cediranib/AZD2171] (max 10 µM)
CLASS: f
--
COMPOUND: Cc1nc(NC(=O)N2CCC[C@H]2C(N)=O)sc1-c1ccnc(C(C)(C)C(F)(F)F)c1 [Alpelisib/BYL719] (max 10 µM)
CLASS: f
--
COMPOUND: CC[C@@]1(O)C(=O)OCc2c1cc1n(c2=O)Cc2cc3c(CN(C)C)c(O)ccc3nc2-1 [Topotecan] (max 10 µM)
CLASS: t
--
COMPOUND: CC(=O)O[C@H]1C(=O)[C@@]2(C)[C@H]([C@H](OC(=O)c3ccccc3)[C@]3(O)C[C@H](OC(=O)[C@H](O)[C@@H](NC(=O)c4ccccc4)c4ccccc4)C(C)=C1C3(C)C)[C@]1(OC(C)=O)CO[C@@H]1C[C@@H]2O [Paclitaxel] (max 1 µM)
CLASS: t

###

test system: EVSAT; experiment: area over the GR curve, 72 h; higher = more effect
Entries and their measured area over the GR curve follow.
PARAMETER: area over the GR curve (GR)

COMPOUND: CN1CCN(C(=O)c2ccc3cc(CCNc4ncnc5ccc(C#N)cc45)ccc3c2)CC1 [senexin b] (max 10 µM)
PARAMETER: area over the GR curve
RESULT_UNITS: GR
OBSERVED_RESULT: 0.0803

COMPOUND: Cc1nc(NC(=O)N2CCC[C@H]2C(N)=O)sc1-c1ccnc(C(C)(C)C(F)(F)F)c1 [Alpelisib/BYL719] (max 10 µM)
PARAMETER: area over the GR curve
RESULT_UNITS: GR
OBSERVED_RESULT: 0.0161

COMPOUND: CC(=O)c1c(C)c2cnc(Nc3ccc(N4CCNCC4)cn3)nc2n(C2CCCC2)c1=O (max 3.162 µM)
PARAMETER: area over the GR curve
RESULT_UNITS: GR
OBSERVED_RESULT: 0.141

COMPOUND: CS(=O)(=O)N1CCN(Cc2cc3nc(-c4cccc5[nH]ncc45)nc(N4CCOCC4)c3s2)CC1 [Pictilisib/GDC0941] (max 10 µM)
PARAMETER: area over the GR curve
RESULT_UNITS: GR
OBSERVED_RESULT: 0.387

COMPOUND: Cc1cc(C(C)Nc2ccccc2)c2nc(N3CCOCC3)cc(=O)n2c1 (configuration not stated) [TGX221] (max 10 µM)
PARAMETER: area over the GR curve
RESULT_UNITS: GR
OBSERVED_RESULT: 0.254

COMPOUND: COc1cc(N2CCN(C)CC2)ccc1Nc1ncc2c(n1)N(C)c1ccccc1C(=O)N2CC(F)(F)F
PARAMETER: area over the GR curve
RESULT_UNITS: GR
OBSERVED_RESULT: -0.0034

COMPOUND: CCc1cncnc1N1CCN(Cc2nc3ccc(C(F)(F)F)cc3[nH]2)CC1 (max 10 µM)
PARAMETER: area over the GR curve
RESULT_UNITS: GR
OBSERVED_RESULT: 0.0249

###

test system: HCC70; experiment: area over the GR curve, 72 h; higher = more effect
area over the GR curve values for the molecules below.

MOLECULE: CN(C)C/C=C/C(=O)Nc1ccc(C(=O)Nc2cccc(Nc3ncc(Cl)c(-c4c[nH]c5ccccc45)n3)c2)cc1 [THZ1] (max 1 µM)
area over the GR curve / GR: 0.762
//
MOLECULE: C[C@@H]1COCCN1c1cc(C2([S@](C)(=N)=O)CC2)nc(-c2cc[nH]c3nccc2-3)n1 [AZD6738] (max 10 µM)
area over the GR curve / GR: 0.283
//
MOLECULE: CN(C)C(=O)c1cc2cnc(Nc3ccc(N4CCNCC4)cn3)nc2n1C1CCCC1 [LEE011/Ribociclib] (max 10 µM)
area over the GR curve / GR: -0.0535
//
MOLECULE: C=CCn1c(=O)c2cnc(Nc3ccc(N4CCN(C)CC4)cc3)nc2n1-c1cccc(C(C)(C)O)n1 [AZD1775] (max 10 µM)
area over the GR curve / GR: 1.15

###

system: SUM159; assay: area over the GR curve, 72 h; higher = more effect;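 note: Dye Drop or Deep Dye Drop imaging of viable cells in 384-well plates (Hoechst nuclei, LIVE/DEAD dye), nine half-log doses, GR normalized to DMSO controls and time-zero plates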
# area over the GR curve values compiled below
PARAMETER: area over the GR curve (GR)

COMPOUND: COc1cc([C@@H]2c3cc4c(cc3[C@@H](O[C@@H]3O[C@@H]5CO[C@@H](C)O[C@H]5[C@H](O)[C@H]3O)[C@H]3COC(=O)[C@H]23)OCO4)cc(OC)c1O [Etoposide] (max 10 µM)
STUDY_SYSTEM: SUM159
OBSERVED_RESULT: 0.413
--
COMPOUND: CN(C)C/C=C/C(=O)Nc1ccc(C(=O)Nc2cccc(Nc3cc(-c4c[nH]c5ccccc45)ncn3)c2)cc1 [THZ-P1-2] (max 10 µM)
STUDY_SYSTEM: SUM159
OBSERVED_RESULT: 0.127
--
COMPOUND: CCC(=O)Nc1ccc(C(=O)Nc2ccc(Nc3ncc4c(n3)N(C)c3ccc(C)cc3C(=O)N4C)cc2)cc1
STUDY_SYSTEM: SUM159
OBSERVED_RESULT: 0.476
--
COMPOUND: Cc1nc(Nc2ncc(C(=O)Nc3c(C)cccc3Cl)s2)cc(N2CCN(CCO)CC2)n1 [Dasatinib] (max 10 µM)
STUDY_SYSTEM: SUM159
OBSERVED_RESULT: 0.0885
